- assay: NS1 protein of Zika virus - qHTS assay to identify small molecule inhibitors in human HEK 293 cells (AID 1347053); further: nearly all actives have a fitted effect of over 55% in size
- experimentalConditions: HEK293 ZIKV MR766 infection, NS1 TR-FRET, 24 h; series mostly up to 46.1 µM
Results filed as inconclusive are left out. Activity calls are given as the source filed them. The call rests on the fitted dose curve; in most records, active means well fitted inhibition curve with a large enough effect; inconclusive means small, poorly fitted or top-dose-only effect; inactive means no such curve, though single readings can be large or run the other way.
Choose one outcome from this list and give only that: t for active, f for inactive

# example entries with known answers
{"molecule": "C=C1c2cccc(O)c2C(O)=C2C(=O)[C@@]3(O)C(O)=C(C(N)=O)C(=O)[C@@H](N(C)C)[C@@H]3[C@@H](O)[C@H]12", "classification": "f"}
{"molecule": "C[C@]12CCC3=C4CCC(=O)C=C4CC[C@@H]3[C@H]1CC[C@@]2(O)CC#N", "classification": "f"}
{"molecule": "COc1nccc(-c2c(-c3ccc(F)cc3)ncn2C2CCC(O)CC2)n1 (centres undefined)", "classification": "f"}
{"molecule": "CN(C)CCOc1ccc(C(=C(CCCl)c2ccccc2)c2ccccc2)cc1", "classification": "f"}

Recorded test outcome, item "O=C1C(c2c(O)[nH]c3ccccc23)=Nc2ccccc21"
f

Recorded test outcome, item "CCN1CCN(c2ccc(Nc3cc(N(C)C(=O)Nc4c(Cl)c(OC)cc(OC)c4Cl)ncn3)cc2)CC1"
f

Recorded test outcome, item C[C@@H]1O[C@@H](O[C@H]2CC[C@@]3(C)[C@H](CC[C@@H]4[C@H]3C[C@@H](O)[C@]3(C)[C@@H](C5=CC(=O)OC5)CC[C@]43O)C2)C[C@H](O)[C@@H]1O[C@H]1C[C@H](O)[C@H](O[C@H]2C[C@H](O)[C@@H](O)[C@@H](C)O2)[C@H](C)O1 (stereo in doubt)
t

Recorded test outcome, item "O=c1[nH]c(=O)n([C@H]2C[C@@H](O)[C@@H](CO)O2)cc1I"
f

Recorded test outcome, item "O=C1CN2Cc3c(ccc(Cl)c3Cl)N=C2N1"
f

Recorded test outcome, item "C[C@H](c1ccc(F)cc1CCCC(=O)O)N(c1cc(F)ccc1F)S(=O)(=O)c1ccc(Cl)cc1"
f

Recorded test outcome, item "COc1c(C)cnc(Cn2cnc3c(Cl)nc(N)nc32)c1C"
f

Recorded test outcome, item "CCN1C[C@H](C)n2c(c(O)c3c(=O)n(Cc4ccc(F)c(Cl)c4)nc(C(=O)NC)c32)C1=O"
f

Recorded test outcome, item CCCCN(CCCC)CC(O)c1cc(Cl)cc2c1-c1ccc(Cl)cc1C2=Cc1ccc(Cl)cc1 (centres undefined)
f

Recorded test outcome, item "COc1cc(Nc2nc3ccccc3nc2NS(=O)(=O)c2ccc(NC(=O)c3ccc(C)c(OC)c3)cc2)cc(OC)c1"
f
